- assayed_target: cardial β-receptors (Felis catus)
- Construct: from tissue; host or cells: heart in situ of anesthetized, reserpinized, vagotomized cat (in vivo, heart rate)
- measurement_notes: Block of isoprenaline, heart rate (HR), reserpinized anesthetized cat
- Type: in vivo
- stated_conditions: iv; reserpinized cat, i.v., heart rate; read-out: Block of isopren ED50 HR
# ED50 listing for each entry below
Respond with the bare value in mg/kg.

compound | unit_label | measured_result
Cc1ccc(Cl)c(OCC(O)CNCCOc2ccc(C(N)=O)cc2)c1 (stereo not shown) | mg/kg | 0.3

Could you tell me which ED50 is on file for C=CCc1ccccc1OCC(O)CNC(C)COc1ccc(C(N)=O)cc1 (stereo not shown) ? 0.05

Could you tell me which ED50 is on file for C#CCOc1ccccc1OCC(O)CNCCOc1ccc(C(N)=O)cc1 (stereo not shown) ? 0.04

Could you tell me which ED50 is on file for C=CCOc1ccccc1OCC(O)CNCCOc1ccc(C(N)=O)cc1 (stereo not shown) ? 0.1

Could you tell me which ED50 is on file for NC(=O)Cc1ccccc1OCC(O)CNCCOc1ccc(C(N)=O)cc1 (stereo not shown) ? 1.7

Could you tell me which ED50 is on file for COCCc1ccc(OCC(O)CNCCOc2ccc(C(N)=O)cc2)cc1 (stereo not shown) ? 1.1

Could you tell me which ED50 is on file for C=CCc1ccccc1OCC(O)CNCCOc1ccc(C(N)=O)cc1 (stereo not shown) ? 0.3

----------
- assayed_target: cardial β-receptors (Felis catus, UniProt Q9TST6)
- Construct: from tissue; host or cells: heart in situ of anesthetized, reserpinized, vagotomized cat (in vivo, heart rate)
- Sequence (Q9TST6 whole entry): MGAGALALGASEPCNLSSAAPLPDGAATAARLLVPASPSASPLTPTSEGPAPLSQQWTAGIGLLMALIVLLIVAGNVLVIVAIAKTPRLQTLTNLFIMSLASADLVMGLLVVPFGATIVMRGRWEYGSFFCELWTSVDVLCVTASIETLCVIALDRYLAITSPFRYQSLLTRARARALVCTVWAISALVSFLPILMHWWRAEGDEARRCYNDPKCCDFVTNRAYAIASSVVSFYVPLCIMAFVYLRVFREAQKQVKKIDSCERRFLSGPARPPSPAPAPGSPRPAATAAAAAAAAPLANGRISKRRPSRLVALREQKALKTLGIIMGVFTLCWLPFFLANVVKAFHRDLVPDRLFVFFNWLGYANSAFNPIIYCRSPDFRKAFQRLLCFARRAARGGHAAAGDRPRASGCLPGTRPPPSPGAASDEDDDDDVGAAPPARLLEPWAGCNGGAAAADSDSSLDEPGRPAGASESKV
- measurement_notes: Block of isoprenaline, heart rate (HR), reserpinized anesthetized cat
- Format: in vivo
- stated_conditions: iv; reserpinized cat, i.v., heart rate; read-out: Block of isopren ED50 HR
# ED50 listing for each entry below
Respond with the bare value in mg/kg.

molecule | assayed_target | ED50 (mg/kg)
NC(=O)c1ccc(OCCNCC(O)COc2ccccc2OCC(=O)NCCO)cc1 (centres unmarked) | cardial β-receptors (Felis catus, UniProt Q9TST6) | 0.03
NC(=O)c1ccc(OCCNCC(O)COc2ccccc2Cl)cc1 (centres unmarked) | cardial β-receptors (Felis catus, UniProt Q9TST6) | 0.05
CC(=O)Nc1ccc(OCC(O)CNC(C)C)cc1 (centres unmarked) [Practolol, reference compound] | cardial β-receptors (Felis catus, UniProt Q9TST6) | 0.3
COC(=O)NCCc1ccc(OCCNCC(O)COc2ccccc2C)cc1 (centres unmarked) | cardial β-receptors (Felis catus, UniProt Q9TST6) | 0.3

Turning now to a further record.
Form field: ED50 recorded for C=CCc1ccccc1OCC(O)CNC(C)COc1ccccc1C (centres unmarked) with cardial β-receptors (Felis catus, UniProt Q9TST6) (enter value) 0.5
